measurement_description: Half life in human hepatocytes at 1 uM by LC-MS/MS analysis
Format: ADME, cell-based, Hepatocyte
reported_endpoint: half-life at 1 µM (h)
Answers are plain numbers, in h.

{"molecule": "CC(=O)CC[C@H]1C(=O)N[C@@H](C(C)C)C(=O)N[C@@H](Cc2cccc(O)c2)C(=O)N2CCCC(N2)C(=O)O[C@H](/C(C)=C/C=C/C(=O)N(CC(C)C)CC(C)C)C/C=C/C=C/[C@H](O)[C@H](C)[C@H]1O (stereo partly drawn)", "test_result": 1.63}

// batch mode: one half-life at 1 µM value per listed entry
1. CC(=O)CC[C@H]1C(=O)N[C@@H](C(C)C)C(=O)N[C@@H](Cc2cccc(O)c2)C(=O)N2CCCC(N2)C(=O)O[C@H](/C(C)=C/C=C/C(=O)Nc2ccccn2)C/C=C/C=C/[C@H](O)[C@H](C)[C@H]1O (stereo in doubt)
2. CCN(CC)C(=O)/C=C/C=C(\C)[C@@H]1C/C=C/C=C/[C@H](O)[C@H](C)[C@@H](O)[C@@H](CCC(C)=O)C(=O)N[C@@H](C(C)C)C(=O)N[C@@H](Cc2cccc(O)c2)C(=O)N2CCCC(N2)C(=O)O1 (stereo partly drawn)
3. C=CCNC(=O)/C=C/C=C(\C)[C@@H]1C/C=C/C=C/[C@H](O)[C@H](C)[C@@H](O)[C@@H](CCC(C)=O)C(=O)N[C@@H](C(C)C)C(=O)N[C@@H](Cc2cccc(O)c2)C(=O)N2CCCC(N2)C(=O)O1 (stereo in doubt)
4. CC[C@H]1C[C@H](C)[C@@]2(NC1=O)O[C@@H](C[C@H](O)[C@@H](C)CC/C=C/C=C(\C)[C@@H]1C/C=C/C=C/[C@H](O)[C@H](C)[C@@H](O)[C@@H](CCC(C)=O)C(=O)N[C@@H](C(C)C)C(=O)N[C@@H](Cc3cccc(O)c3)C(=O)N3CCCC(N3)C(=O)O1)[C@H](C)[C@H](O)[C@@H]2C (stereo partly drawn)

[1.58, 1.57, 2.32, 2.42]

Batch: half-life at 1 µM for all items listed.
1. CC(=O)CC[C@H]1C(=O)N[C@@H](C(C)C)C(=O)N[C@@H](Cc2cccc(O)c2)C(=O)N2CCCC(N2)C(=O)O[C@H](/C(C)=C/C=C/C(=O)N(C)C)C/C=C/C=C/[C@H](O)[C@H](C)[C@H]1O (stereo partly drawn)
2. CC(=O)CC[C@H]1C(=O)N[C@@H](C(C)C)C(=O)N[C@@H](Cc2cccc(O)c2)C(=O)N2CCCC(N2)C(=O)O[C@H](/C(C)=C/C=C/C(=O)Nc2cccnc2)C/C=C/C=C/[C@H](O)[C@H](C)[C@H]1O (stereo in doubt)

1: 2.13; 2: 1.93

###

Test system: Hepatitis C virus
measurement_description: Antiviral activity against Hepatitis C virus genotype 1b I389luc-ubi-neo/NS3-3'/5.1 subgenomic replicon infected in human Huh5-2 cells after 4 days by luciferase assay
Type: functional, cell-based, Hepacivirus hominis
test_conditions: Huh-5-2, 96 h
reported_endpoint: pEC50
Numbers only, as −log10 of the molar value.

{"compound": "CC[C@H]1C[C@H](C)[C@@]2(NC1=O)O[C@@H](C[C@H](O)[C@@H](C)CC/C=C/C=C(\\C)[C@@H]1C/C=C/C=C/[C@H](O)[C@H](C)[C@@H](O)[C@@H](CCC(C)=O)C(=O)N[C@@H](C(C)C)C(=O)N[C@@H](Cc3cccc(O)c3)C(=O)N3CCCC(N3)C(=O)O1)[C@H](C)[C@H](O)[C@@H]2C (some centres not stated)", "reported_endpoint": "pEC50", "test_result": 6.50}

Now look at this one.
Give a short answer stating reported pEC50 for CC(=O)CC[C@H]1C(=O)N[C@@H](C(C)C)C(=O)N[C@@H](Cc2cccc(O)c2)C(=O)N2CCCC(N2)C(=O)O[C@H](/C(C)=C/C=C/C(=O)N2CCOCC2)C/C=C/C=C/[C@H](O)[C@H](C)[C@H]1O (some centres not stated) .
5.85

###

Hi there, I'd appreciate the recorded half-life at 1 µM for every entry that follows.
measurement_description: in vitro
test_conditions: mouse, liver microsomes
Description: Half life in mouse liver microsomes at 1 uM by LC-MS/MS analysis
Answers are plain numbers, in min.

{"molecule": "CC[C@H]1C[C@H](C)[C@@]2(NC1=O)O[C@@H](C[C@H](O)[C@@H](C)CC/C=C/C=C(\\C)[C@@H]1C/C=C/C=C/[C@H](O)[C@H](C)[C@@H](O)[C@@H](CCC(C)=O)C(=O)N[C@@H](C(C)C)C(=O)N[C@@H](Cc3cccc(O)c3)C(=O)N3CCCC(N3)C(=O)O1)[C@H](C)[C@H](O)[C@@H]2C (some centres not stated)", "half-life at 1 µM [min]": 4}

Moving on to the next molecule.
Find the measured half-life at 1 µM of CC(=O)CC[C@H]1C(=O)N[C@@H](C(C)C)C(=O)N[C@@H](Cc2cccc(O)c2)C(=O)N2CCCC(N2)C(=O)O[C@H](/C(C)=C/C=C/C(=O)N(C)c2ccccn2)C/C=C/C=C/[C@H](O)[C@H](C)[C@H]1O (some centres not stated) and report it.
9.8

###

measurement_description: Ratio of drug level in liver to blood in CD-1 mouse at 5 mg/kg, po administered as single dose measured for 24 hrs post-dose by LC-MS/MS analysis
Type: ADME, organism-based
Parameters: dose 5 mg/kg, route oral
test_conditions: liver and blood
reported_endpoint: Kp at 24 h
Numbers only.

Report Kp at 24 h, nothing else, for this molecule: CC(=O)CC[C@H]1C(=O)N[C@@H](C(C)C)C(=O)N[C@@H](Cc2cccc(O)c2)C(=O)N2CCCC(N2)C(=O)O[C@H](/C(C)=C/C=C/C(=O)N2CCCCO2)C/C=C/C=C/[C@H](O)[C@H](C)[C@H]1O (stereo partly specified)
3

###

For each of the compounds below, state its pIC50.
subject_of_test: Peptidyl-prolyl cis-trans isomerase A (Homo sapiens)
measurement_description: Inhibition of recombinant GST-tagged CypA (unknown origin)/HCV Con1 NS5A-His interaction after 16 hrs by ELISA
Give bare numbers, as −log10 of the molar value.

// below: answered compounds
{"compound": "CC(=O)CC[C@H]1C(=O)N[C@@H](C(C)C)C(=O)N[C@@H](Cc2cccc(O)c2)C(=O)N2CCCC(N2)C(=O)O[C@H](/C(C)=C/C=C/C(=O)Nc2ccncc2)C/C=C/C=C/[C@H](O)[C@H](C)[C@H]1O (stereo partly drawn)", "pIC50": 6.26}
{"compound": "CC(=O)CC[C@H]1C(=O)N[C@@H](C(C)C)C(=O)N[C@@H](Cc2cccc(O)c2)C(=O)N2CCCC(N2)C(=O)O[C@H](/C(C)=C/C=C/C(=O)N(C)C)C/C=C/C=C/[C@H](O)[C@H](C)[C@H]1O (stereo partly drawn)", "pIC50": 6.20}

API: the following record is the query input.
Please report pIC50 for the following compound: CC(=O)CC[C@H]1C(=O)N[C@@H](C(C)C)C(=O)N[C@@H](Cc2cccc(O)c2)C(=O)N2CCCC(N2)C(=O)O[C@H](/C(C)=C/C=C/C(=O)N(CC(C)C)CC(C)C)C/C=C/C=C/[C@H](O)[C@H](C)[C@H]1O (stereo partly drawn)
6.41

###

For each of the compounds below, state its IC50.
subject_of_test: Peptidyl-prolyl cis-trans isomerase A (Homo sapiens, UniProt P62937)
Sequence (P62937 whole entry): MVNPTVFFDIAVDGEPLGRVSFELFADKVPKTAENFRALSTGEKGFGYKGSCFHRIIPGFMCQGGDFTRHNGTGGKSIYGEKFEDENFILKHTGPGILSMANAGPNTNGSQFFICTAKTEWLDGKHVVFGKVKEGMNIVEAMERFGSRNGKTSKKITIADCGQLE
measurement_description: Inhibition of recombinant GST-tagged CypA (unknown origin)/HCV Con1 NS5A-His interaction after 16 hrs by ELISA
Give bare numbers, in nM.

{"compound": "CON(C)C(=O)/C=C/C=C(\\C)[C@@H]1C/C=C/C=C/[C@H](O)[C@H](C)[C@@H](O)[C@@H](CCC(C)=O)C(=O)N[C@@H](C(C)C)C(=O)N[C@@H](Cc2cccc(O)c2)C(=O)N2CCCC(N2)C(=O)O1 (some centres not stated)", "IC50 [nM]": 200}

# context switch: different compound, same IC50
Provide one value: measured IC50 of CC(=O)CC[C@H]1C(=O)N[C@@H](C(C)C)C(=O)N[C@@H](Cc2cccc(O)c2)C(=O)N2CCCC(N2)C(=O)O[C@H](/C(C)=C/C=C/C(=O)Nc2ccc(-c3ccccc3)cc2)C/C=C/C=C/[C@H](O)[C@H](C)[C@H]1O (stereo in doubt)
520

###

measurement_description: Half life in human liver microsomes at 1 uM by LC-MS/MS analysis
Assay type: ADME
reported_endpoint: half-life at 1 µM (min)
One number for each entry, in min.

{"molecule": "CC(=O)CC[C@H]1C(=O)N[C@@H](C(C)C)C(=O)N[C@@H](Cc2cccc(O)c2)C(=O)N2CCCC(N2)C(=O)O[C@H](/C(C)=C/C=C/C(=O)Nc2ccc(-c3ccccc3)cc2)C/C=C/C=C/[C@H](O)[C@H](C)[C@H]1O (stereo in doubt)", "unit_string": "min", "half-life at 1 µM": 2.3}

Recall and state the measured half-life at 1 µM for CC(=O)CC[C@H]1C(=O)N[C@@H](C(C)C)C(=O)N[C@@H](Cc2cccc(O)c2)C(=O)N2CCCC(N2)C(=O)O[C@H](/C(C)=C/C=C/C(=O)N2CCOCC2)C/C=C/C=C/[C@H](O)[C@H](C)[C@H]1O (some centres not stated) .
50.3
